B1: Gamma-crystallin D, residues 90 to 170; numbered along this chain, P07320 (parent)
chain: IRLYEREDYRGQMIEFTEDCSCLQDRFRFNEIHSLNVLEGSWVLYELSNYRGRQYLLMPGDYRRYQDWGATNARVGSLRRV

variants of: B1; assay: abundance fitness (aPCA) (normalised: wild type 0, dead -1); higher = more abundant; growth selection in yeast, the domain comes from the species named; conditions: Homo sapiens
parameter: abundance fitness
Give bare numbers.

Please state, for each entry, its recorded abundance fitness.
1. R51Y
2. Y9G
3. L38P
4. V43Y
5. Q12K

[reply]
[-0.108, 0.06, 0.012, -0.229, 0.052]
